Sourced from the supplement of paper PMC10307832

Test system: NCI-H1734
Assay: relative viability (nuclei count vs DMSO), 5 days (fraction); higher = more cells survive
Conditions: first compound 1 µM
Could you please mark fulfilled for values of relative viability below 0.7 and not fulfilled for values at or above it?

Reference set (3 entries):
CCN(CC)CCCCNc1ncc2cc(-c3cc(OC)cc(OC)c3)c(NC(=O)NC(C)(C)C)nc2n1 + CC1(C)CCC(c2ccc(Cl)cc2)=C(CN2CCN(c3ccc(C(=O)NS(=O)(=O)c4ccc(N[C@H](CCN5CCOCC5)CSc5ccccc5)c(S(=O)(=O)C(F)(F)F)c4)cc3)CC2)C1 [Navitoclax] (partner 0.5 µM) : not fulfilled
CCN(CC)CCCCNc1ncc2cc(-c3cc(OC)cc(OC)c3)c(NC(=O)NC(C)(C)C)nc2n1 + C[C@@H](Oc1cc(-c2cnn(C3CCNCC3)c2)cnc1N)c1c(Cl)ccc(F)c1Cl [Crizotinib] (partner 1 µM) : fulfilled
CCN(CC)CCCCNc1ncc2cc(-c3cc(OC)cc(OC)c3)c(NC(=O)NC(C)(C)C)nc2n1 + CC(=O)c1c(C)c2cnc(Nc3ccc(N4CCNCC4)cn3)nc2n(C2CCCC2)c1=O [Palbociclib] (partner 0.5 µM) : fulfilled

[Q] Field: below-cutoff. Rule: recorded relative viability strictly less than 0.7. Subject: CCN(CC)CCCCNc1ncc2cc(-c3cc(OC)cc(OC)c3)c(NC(=O)NC(C)(C)C)nc2n1 + N=C(N)NC(=N)NCCc1ccccc1 [Phenformin] (partner 250 µM)
[A] fulfilled

[Q] Field: below-cutoff. Rule: recorded relative viability strictly less than 0.7. Subject: CCN(CC)CCCCNc1ncc2cc(-c3cc(OC)cc(OC)c3)c(NC(=O)NC(C)(C)C)nc2n1 + C[C@]1(O)C[C@@H](c2nc(-c3ccc4ccc(-c5ccccc5)nc4c3)c3c(N)nccn32)C1 [Linsitinib] (partner 1 µM)
[A] not fulfilled

[Q] Field: below-cutoff. Rule: recorded relative viability strictly less than 0.7. Subject: O=c1cc(N2CCOCC2)oc2c(-c3cccc4c3sc3ccccc34)cccc12 + CCNC(=O)c1noc(-c2cc(C(C)C)c(O)cc2O)c1-c1ccc(CN2CCOCC2)cc1 [Luminespib] (partner 0.01 µM)
[A] fulfilled

[Q] Field: below-cutoff. Rule: recorded relative viability strictly less than 0.7. Subject: O=c1cc(N2CCOCC2)oc2c(-c3cccc4c3sc3ccccc34)cccc12 + C[C@@H](Oc1cc(-c2cnn(C3CCNCC3)c2)cnc1N)c1c(Cl)ccc(F)c1Cl [Crizotinib] (partner 1 µM)
[A] fulfilled

[Q] Field: below-cutoff. Rule: recorded relative viability strictly less than 0.7. Subject: CCN(CC)CCCCNc1ncc2cc(-c3cc(OC)cc(OC)c3)c(NC(=O)NC(C)(C)C)nc2n1 + CS(=O)(=O)CCNCc1ccc(-c2ccc3ncnc(Nc4ccc(OCc5cccc(F)c5)c(Cl)c4)c3c2)o1 [Lapatinib] (partner 2 µM)
[A] not fulfilled
